Molecular target: CCNE1 (Homo sapiens, UniProt P24864+P24941)
Construct: host or cells: HEK293
Experiment: CCNE1 HIBIT PQ (protein quantification), degradation
Type: cell-based
Details: Max = Maximum
Please assign f whenever CCNE1 HIBIT PQ Max (%) is at or above 60%, and t whenever it is below.

Prompt: In the record for CC(C)Oc1c(-c2cn[nH]c2)ncn2nc(Nc3ccc(S(=O)(=O)c4cccc(C[C@H]5C[C@H](c6ccc7c(c6)CN([C@H]6CCC(=O)NC6=O)C7=O)C5)c4)cc3F)nc12 (stereo in doubt) , is CCNE1 HIBIT PQ Max (%) less than 60%?
Completion: t

Prompt: Quick check: CCNE1 HIBIT PQ Max (%) of CC(C)Oc1c(-c2cn[nH]c2)ncn2nc(Nc3ccc(S(=O)(=O)c4cccc(CN5CC(c6ccc7c(c6)CN(C6CCC(=O)NC6=O)C7=O)C5)c4)cc3F)nc12 (racemic) under 60%?
Completion: f

Prompt: Hello, is CCNE1 HIBIT PQ Max (%) of the following compound strictly smaller than 60%? CC(C)Oc1c(-c2cn[nH]c2)ncn2nc(NC3CCN(S(=O)(=O)c4cccc(CN5CC(c6ccc7c(c6)CN(C6CCC(=O)NC6=O)C7=O)C5)c4)CC3)nc12 (racemic)
Completion: f

Prompt: Hi there! Is CCNE1 HIBIT PQ Max (%) for CC(C)Oc1c(-c2cn[nH]c2)ncn2nc(Nc3ccc(S(=O)(=O)c4cccc(C[C@H]5C[C@H](c6ccc7c(N8CCC(=O)NC8=O)nn(C)c7c6)C5)c4)cc3F)nc12 below 60%, do you know?
Completion: t

Prompt: Please let me know if CC(C)Oc1c(-c2cn[nH]c2)ncn2nc(Nc3ccc(S(=O)(=O)c4cccc(N5CCC6C5CN6c5ccc6c(c5)CN(C5CCC(=O)NC5=O)C6=O)c4)cc3F)nc12 (stereo not drawn) shows CCNE1 HIBIT PQ Max (%) below 60%.
Completion: f

* * *

Biological target: CDK2 (Homo sapiens, UniProt P24941)
Construct: host or cells: HEK293
Test: CDK2 HIBIT PQ (protein quantification), degradation
Format: cell-based
Settings: Max = Maximum
Kindly supply the reported CDK2 HIBIT PQ Max (%) values for the records listed here.

Entry CC(C)Oc1c(-c2cn[nH]c2)ncn2nc(NC3CCN(S(=O)(=O)N(C)CCCN4CCC(c5cccc6c5n(C)c(=O)n6C5CCC(=O)NC5=O)CC4)CC3)nc12 (racemic) — recorded CDK2 HIBIT PQ Max (%) = 90%

Input CC(C)Oc1c(-c2cn[nH]c2)ncn2nc(Nc3ccc(S(=O)(=O)c4cccc(C[C@H]5C[C@H](c6ccc7c(c6)CN([C@H]6CCC(=O)NC6=O)C7=O)C5)c4)cc3F)nc12 (stereo in doubt) . Output CDK2 HIBIT PQ Max (%): 88%

compound CC(C)Oc1c(-c2cn[nH]c2)ncn2nc(Nc3ccc(S(=O)(=O)N4CC5C4CCN5CC4CCN(c5cccc6c5n(C)c(=O)n6C5CCC(=O)NC5=O)CC4)cc3F)nc12 (stereo not drawn) , CDK2 HIBIT PQ Max (%) observed: 91%
